Settings: 288.15 K; 101 kPa; Liquid
# maps each entry to its viscosity
Answer format: numeric, mPa·s implied, no suffix.

>>> reported_measurement("CCC(C)Cl (stereo not given)")
0.4365
>>> reported_measurement("COC(C)(C)C")
0.364

Challenge: Provide viscosity value for the following compound: CCCCCl
Response given: 0.4701

Challenge: Supply reported viscosity belonging to this compound: CC(C)CCl
Response given: 0.4833

Challenge: State its viscosity: CCCCOCC
Response given: 0.4509

* * *

Catalogue of viscosity readings, one per entry.
Conditions: 293.15 K; 101 kPa; Liquid
Express the result in mPa·s but write the number alone.

// below: answered compounds
>>> reported_measurement("CCCCOCC")
0.4242
>>> reported_measurement("COC(C)(C)C")
0.3482
>>> reported_measurement("CCCCCl")
0.4433
>>> reported_measurement("CC(C)CCl")
0.454

Challenge: Indicate its recorded viscosity; the compound in question is CCC(C)Cl (stereo not given)
Response given: 0.4167

* * *

Conditions: 308.15 K; 101 kPa; Liquid
readout: viscosity (mPa·s)
Answer format: numeric, mPa·s implied, no suffix.

Observe how each entry below is paired with its result.
>>> reported_measurement("CCC(C)Cl (stereo not given)")
0.3615
>>> reported_measurement("CCCCCl")
0.3885

Challenge: Item CC(C)CCl : provide viscosity
Response given: 0.3921

Challenge: Complete the entry with viscosity for COC(C)(C)C
Response given: 0.2994

Challenge: Find the measured viscosity of CCCCOCC and report it.
Response given: 0.356

* * *

Listed below: viscosity values for each entry.
Details: 313.15 K; 101 kPa; Liquid
Express the result in mPa·s but write the number alone.

Below: 4 compounds and their reported viscosity.
>>> reported_measurement("CCC(C)Cl (stereo not given)")
0.3443
>>> reported_measurement("CC(C)CCl")
0.3726
>>> reported_measurement("CCCCOCC")
0.3416
>>> reported_measurement("CCCCCl")
0.3642

Now turn to the next compound.
Challenge: Indicate its recorded viscosity; the compound in question is COC(C)(C)C
Response given: 0.2846

* * *

Listed here: items and their measured viscosity.
Details: 303.15 K; 101 kPa; Liquid
Supply the numeric figure in mPa·s, leaving out any unit text.

Field: example entries. Status: answers known.
>>> reported_measurement("CCCCCl")
0.405
>>> reported_measurement("CC(C)CCl")
0.4112
>>> reported_measurement("COC(C)(C)C")
0.3152
>>> reported_measurement("CCCCOCC")
0.3756

Here is the next item to consider.
Challenge: Could you please provide reported viscosity for CCC(C)Cl (stereo not given) ? Thanks!
Response given: 0.38
